assay: Stopped-flow kinetics of release of NO from the nitrophorins; assay type: binding, Rhodnius prolixus; settings: pH 7.5; 5–10 μM in 100 mM sodium phosphate buffer
readout: NO Kd (NO dissociation) (s^–1)
Give bare numbers, in s^–1.

{"columns": ["molecule", "NO Kd (NO dissociation) (s^–1)"],
 "data": [
  ["(M0)NP1sym: (M0)NP1 containing the symmetrical heme, 2,4-dimethyldeuterohemin (protein, UniProt Q26239 24-207, looked up, Met0; 2,4-dimethyldeuterohemin heme) Nitrophorin-1: KCTKNALAQTGFNKDKYFNGDVWYVTDYLDLEPDDVPKRYCAALAAGTASGKLKEALYHYDPKTQDTFYDVSELQEESPGKYTANFKKVEKNGNVKVDVTSGNYYTFTVMYADDSSALIHTCLHKGNKDLGDLYAVLNRNKDTNAGDKVKGAVTAASLKFSDFISTKDNKCEYDNVSLKSLLTK", 2.66],
  ["(M0)NP1: recombinant NP1 retaining methionine M0 at the N-terminus (MKCTK...) (protein) MKCTKNALAQTGFNKDKYFNGDVWYVTDYLDLEPDDVPKRYCAALAAGTASGKLKEALYHYDPKTQDTFYDVSELQEESPGKYTANFKKVEKNGNVKVDVTSGNYYTFTVMYADDSSALIHTCLHKGNKDLGDLYAVLNRNKDTNAGDKVKGAVTAASLKFSDFISTKDNKCEYDNVSLKSLLTK", 2.32],
  ["NP4: NO-carrying heme protein from the salivary glands of Rhodnius prolixus, recombinant, N-terminus ACTK... (protein) ACTKNAIAQTGFNKDKYFNGDVWYVTDYLDLEPDDVPKRYCAALAAGTASGKLKEALYHYDPKTQDTFYDVSELQVESLGKYTANFKKVDKNGNVKVAVTAGNYYTFTVMYADDSSALIHTCLHKGNKDLGDLYAVLNRNKDAAAGDKVKSAVSAATLEFSKFISTKENNCAYDNDSLKSLLTK", 1.60]
]}

Query molecule follows.
Form field NO Kd (NO dissociation), entry Nat. N-term NP1 ^c: native N-terminal NP1 (N-terminus KC...) (protein, UniProt Q26239 24-207, looked up) Nitrophorin-1: KCTKNALAQTGFNKDKYFNGDVWYVTDYLDLEPDDVPKRYCAALAAGTASGKLKEALYHYDPKTQDTFYDVSELQEESPGKYTANFKKVEKNGNVKVDVTSGNYYTFTVMYADDSSALIHTCLHKGNKDLGDLYAVLNRNKDTNAGDKVKGAVTAASLKFSDFISTKDNKCEYDNVSLKSLLTK : 1.11
